The origin of these recorded values is patent US20260297060A1.

- assay.overview: Pharmacokinetics after 21 days dosing in the efficacy study (plasma, tumor and brain concentrations; plasma AUC at steady state), Example 14
- Type: in vivo, female BALB/c nude mice
- particulars: mouse, plasma, po; 1.5 mg/kg p.o. BID x 21 days; 8 h; mean ± SEM
Quick reference for concentration at 8 h among some compounds
Write it as a number; the unit µg/mL goes unstated.

>  <compound>
CCN(C)S(=O)(=O)Nc1ccc(F)c(Oc2ccc3ncn([C@H]4COC5(CCN(C6CC7(C6)CN(c6cc8c(cc6F)c(N6CCC(=O)NC6=O)nn8C)C7)CC5)C4)c(=O)c3c2)c1C#N

>  <concentration at 8 h [µg/mL]>
0.912

$$$$

# input for lookup
Return the recorded concentration at 8 h value; entry: CCN(C)S(=O)(=O)Nc1ccc(F)c(Oc2ccc3ncn(C4CC5(CCN(C6CC7(C6)CN(c6cc8c(cc6F)c(N6CCC(=O)NC6=O)nn8C)C7)CC5)C4)c(=O)c3c2)c1C#N (centres unmarked)
0.523
